Measured pKd accompanies every entry in the list below.
# TEST SYSTEM: PPARγ (Homo sapiens, UniProt P37231)
# Sequence (P37231 223-505 limits assumed): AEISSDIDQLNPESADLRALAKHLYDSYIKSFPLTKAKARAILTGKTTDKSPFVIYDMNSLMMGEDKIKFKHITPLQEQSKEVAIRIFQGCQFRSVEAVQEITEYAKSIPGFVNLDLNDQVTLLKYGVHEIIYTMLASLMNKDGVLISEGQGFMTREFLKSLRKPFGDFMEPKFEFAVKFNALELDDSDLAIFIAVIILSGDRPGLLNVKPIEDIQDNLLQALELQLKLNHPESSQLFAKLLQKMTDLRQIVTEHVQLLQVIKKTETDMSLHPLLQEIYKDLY
# TEST SUMMARY: SPR on immobilized PPARγ
# Assay type: binding
# STUDY CONDITIONS: SPR, immobilized PPARγ
Recall that pKd is obtained by taking minus log10 of the concentration measured in molar.

# MOLECULE, NUMBER
data = [
    ("C=C1C2CCC3C(CCC4[C@@H](C(=O)OC)C[C@@H](O)C[C@]43C)(C2)[C@H]1O (some centres unmarked)", 5.73),
]

Consider now this further molecule.
Sample C=C1C(=O)C23CCC4C(C(=O)OC)CC(O)CC4(C)C2CCC1C3 (centres unmarked) — what was its pKd? 7.59

----------
# TEST SYSTEM: PPARγ LBD (Homo sapiens, UniProt P37231)
# Construct: Recombinant human PPARγ-LBD, consisting of the region 195–477 of PPARγ
# Sequence (P37231 223-505): as the sequence (P37231 223-505 limits assumed) above
# TEST SUMMARY: SPR on immobilized PPARγ LBD
VALUE TYPE: Kd (nM)
State just the number; it will be interpreted in nM.

Find the measured Kd: item C=C1C(=O)C23CCC4C(C(=O)OC)CC(O)CC4(C)C2CCC1C3 (stereo not shown) [Compound 1, 15-ketoatractyligenin methyl ester] , target or system PPARγ LBD (Homo sapiens, UniProt P37231). 39.2
